# study_system: Potassium voltage-gated channel subfamily A member 3 (Homo sapiens)
# experiment_description: Inhibition of Kv1.3 (unknown origin)
pEC50: −log10 of the molar value.
measured_metric: pEC50

| compound_string | obs_value |
| --- | --- |
| CCc1ccc(OCCCCCOc2c3ccoc3cc3oc(=O)ccc23)cc1 | 7.46 |

[P] O=c1ccc2c(OCCCOc3ccccc3)c3ccoc3cc2o1
[Q] Cc1ccc(OCCCCOc2c3ccoc3cc3oc(=O)ccc23)cc1
[R] O=C(CCCOc1c2ccoc2cc2oc(=O)ccc12)c1ccccc1
Arrange the 3 entries by pEC50 so the values rise. Kindly provide the labels arranged according to the requested ordering. R, P, Q
(R: 7.51, P: 7.82, Q: 8.15)

[I] CCc1ccc(OCCCCOc2c3ccoc3cc3oc(=O)ccc23)cc1
[II] COc1cc(OC)cc(OCCCCCOc2c3ccoc3cc3oc(=O)ccc23)c1
Could you point out whether the larger pEC50 belongs to I or to II ? Could you answer with the label of the item you picked? I
(I: 7.89, II: 7.49)

* * *

# study_system: Potassium voltage-gated channel subfamily A member 2 (Homo sapiens, UniProt P16389)
# Sequence (P16389 whole entry): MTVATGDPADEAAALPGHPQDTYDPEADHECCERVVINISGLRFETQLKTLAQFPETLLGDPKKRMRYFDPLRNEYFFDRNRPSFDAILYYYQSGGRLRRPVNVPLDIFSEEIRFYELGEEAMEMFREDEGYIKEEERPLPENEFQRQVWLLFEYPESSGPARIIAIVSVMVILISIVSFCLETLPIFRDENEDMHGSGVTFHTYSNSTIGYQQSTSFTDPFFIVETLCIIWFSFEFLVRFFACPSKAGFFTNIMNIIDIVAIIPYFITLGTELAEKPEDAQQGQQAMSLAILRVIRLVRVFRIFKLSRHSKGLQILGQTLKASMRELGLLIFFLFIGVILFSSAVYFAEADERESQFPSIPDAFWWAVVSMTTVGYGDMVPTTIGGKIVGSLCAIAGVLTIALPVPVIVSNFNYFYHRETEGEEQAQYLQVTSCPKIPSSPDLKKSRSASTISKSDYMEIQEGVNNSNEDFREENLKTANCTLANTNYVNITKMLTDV
# experiment_description: Inhibition of Kv1.2 (unknown origin)
measured_metric: pEC50
Quick note: pEC50 values are minus log10 of concentrations in mol/L.

Short answer please: pEC50, Potassium voltage-gated channel subfamily A member 2 (Homo sapiens, UniProt P16389), entry O=c1ccc2c(OCCCCOc3ccccc3)c3ccoc3cc2o1 6.60

* * *

# study_system: Potassium voltage-gated channel subfamily A member 3 (Homo sapiens, UniProt P22001)
# Sequence (P22001 whole entry): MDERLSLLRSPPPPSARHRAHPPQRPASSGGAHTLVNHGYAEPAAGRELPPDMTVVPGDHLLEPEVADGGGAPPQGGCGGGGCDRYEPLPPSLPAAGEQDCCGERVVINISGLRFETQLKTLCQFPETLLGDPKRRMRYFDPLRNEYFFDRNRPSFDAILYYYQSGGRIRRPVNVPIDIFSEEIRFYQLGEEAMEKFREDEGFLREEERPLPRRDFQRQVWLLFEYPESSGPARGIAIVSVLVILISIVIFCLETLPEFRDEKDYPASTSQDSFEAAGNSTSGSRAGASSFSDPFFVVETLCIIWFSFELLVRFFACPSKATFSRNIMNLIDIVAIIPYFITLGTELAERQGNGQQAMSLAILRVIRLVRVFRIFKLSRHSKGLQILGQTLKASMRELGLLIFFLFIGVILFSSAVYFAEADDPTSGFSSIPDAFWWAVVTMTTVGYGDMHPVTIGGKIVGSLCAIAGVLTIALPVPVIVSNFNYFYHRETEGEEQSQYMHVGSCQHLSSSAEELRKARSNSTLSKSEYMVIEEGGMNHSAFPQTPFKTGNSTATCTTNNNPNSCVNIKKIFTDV
# experiment_description: Inhibition of Kv1.3 (unknown origin)
pEC50: −log10 of the molar value.
measured_metric: pEC50

Known results for compounds:
| compound_string | study_system | obs_value |
| --- | --- | --- |
| O=c1ccc2c(OCCCCOc3cccc4ccccc34)c3ccoc3cc2o1 | Potassium voltage-gated channel subfamily A member 3 (Homo sapiens, UniProt P22001) | 7.70 |
| N#CCCCOc1c2occc2cc2ccc(=O)oc12 | Potassium voltage-gated channel subfamily A member 3 (Homo sapiens, UniProt P22001) | 5.30 |
| O=c1ccc2c(OCCCCn3cccn3)c3ccoc3cc2o1 | Potassium voltage-gated channel subfamily A member 3 (Homo sapiens, UniProt P22001) | 6.35 |
| O=c1ccc2c(OCCCCOc3ccc(Oc4ccccc4)cc3)c3ccoc3cc2o1 | Potassium voltage-gated channel subfamily A member 3 (Homo sapiens, UniProt P22001) | 7.80 |
| O=c1ccc2c(OCCCCCOc3ccccc3)c3ccoc3cc2o1 | Potassium voltage-gated channel subfamily A member 3 (Homo sapiens, UniProt P22001) | 7.82 |
| O=c1ccc2c(OCCCCOc3ccc4ccccc4c3)c3ccoc3cc2o1 | Potassium voltage-gated channel subfamily A member 3 (Homo sapiens, UniProt P22001) | 7.92 |
| O=c1ccc2c(OCCCCOc3ccc(Cl)cc3)c3ccoc3cc2o1 | Potassium voltage-gated channel subfamily A member 3 (Homo sapiens, UniProt P22001) | 8.30 |
| N#CCCCCOc1c2ccoc2cc2oc(=O)ccc12 | Potassium voltage-gated channel subfamily A member 3 (Homo sapiens, UniProt P22001) | 5.89 |
| O=c1ccc2c(OCCCCOc3cccc(C(F)(F)F)c3)c3ccoc3cc2o1 | Potassium voltage-gated channel subfamily A member 3 (Homo sapiens, UniProt P22001) | 7.19 |
| COc1cccc(OCCCOc2c3ccoc3cc3oc(=O)ccc23)c1 | Potassium voltage-gated channel subfamily A member 3 (Homo sapiens, UniProt P22001) | 7.35 |

[a] COc1cccc(OCCCCOc2c3ccoc3cc3oc(=O)ccc23)c1
[b] Cc1nnc(SCCCCOc2c3ccoc3cc3oc(=O)ccc23)s1
[c] O=c1ccc2c(OCCCCOc3ccc([N+](=O)[O-])cc3)c3ccoc3cc2o1
[d] O=c1ccc2c(OCCCCOCc3ccccc3)c3ccoc3cc2o1
[e] Cc1ccc(OCCCCOc2c3ccoc3cc3oc(=O)ccc23)c([N+](=O)[O-])c1
Arrange the 5 entries by pEC50 so the values rise. Kindly provide the labels arranged according to the requested ordering. e, b, d, a, c
